assay: Stability in mouse liver microsomes assessed as compound remaining at 10 uM in presence of NADPH regenerating system measured at 60 mins by LC/MS/MS method; assay type: ADME; conditions: read-out: Stability
reportedEndpoint: remaining at 1 h, 10 µM (%)
Please give a number only; it is taken to be in %.

*Q* Please report the recorded remaining at 1 h, 10 µM for [O-][S+](CCN1CCN(CC(O)Cc2ccccc2)CC1)C(c1ccc(F)cc1)c1ccc(F)cc1 (stereo unspecified) .
*A* 4

----------
experiment: Displacement of [3H]nisoxetine from NET in Sprague-Dawley rat frontal cortex membranes incubated for 180 mins by radioligand binding assay; set-up: species or system Membrane
reportedEndpoint: pKi
Friendly reminder that pKi comes from taking -log10 of the concentration in mol/L.

*Q* Request the reported pKi associated with `Fc1ccc(C(SCCN2CCN(Cc3ccccc3)CC2)c2ccc(F)cc2)cc1`
*A* 5.08

*Q* Form field: reported pKi of CCCCN1C2CCC1CC(OC(c1ccc(F)cc1)c1ccc(F)cc1)C2 (configuration not stated)
*A* 5.78

*Q* Would you kindly share the measured pKi for O=C(C[S+]([O-])C(c1ccc(F)cc1)c1ccc(F)cc1)N1CCN(Cc2ccc(Cl)cc2)CC1 (configuration not stated) ?
*A* 4.20

*Q* Item under review: `Fc1ccc(C(SCCN2CCN(Cc3ccc(C(F)(F)F)cc3)CC2)c2ccc(F)cc2)cc1` . Reported pKi?
*A* 4.81

----------
Please respond with reported Ki for every item in the list.
molecular target: Sodium-dependent dopamine transporter (Homo sapiens); assay: Inhibition of DAT (unknown origin) expressed in COS7 cells assessed as reduction in [3H]DA uptake incubated for 5 mins by beta-scintillation counting method; assay type: cell-based, COS-7
Sequence (Q01959 whole entry): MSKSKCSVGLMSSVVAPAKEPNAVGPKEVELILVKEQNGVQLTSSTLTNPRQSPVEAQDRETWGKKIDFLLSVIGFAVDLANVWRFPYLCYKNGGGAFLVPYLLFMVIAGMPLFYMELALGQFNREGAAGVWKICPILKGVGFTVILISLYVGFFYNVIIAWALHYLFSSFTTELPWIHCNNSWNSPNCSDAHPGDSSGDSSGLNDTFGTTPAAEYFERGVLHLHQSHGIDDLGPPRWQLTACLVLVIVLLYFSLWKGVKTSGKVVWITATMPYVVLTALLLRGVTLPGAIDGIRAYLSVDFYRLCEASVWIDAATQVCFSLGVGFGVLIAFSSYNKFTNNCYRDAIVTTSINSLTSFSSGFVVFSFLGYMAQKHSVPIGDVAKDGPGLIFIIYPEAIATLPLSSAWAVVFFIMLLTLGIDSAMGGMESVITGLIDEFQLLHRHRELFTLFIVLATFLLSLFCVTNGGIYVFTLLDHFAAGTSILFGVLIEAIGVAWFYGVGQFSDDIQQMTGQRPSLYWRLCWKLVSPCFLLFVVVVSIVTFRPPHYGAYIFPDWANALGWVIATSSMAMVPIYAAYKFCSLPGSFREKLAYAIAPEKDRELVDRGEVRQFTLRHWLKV
Write the answer as a number in µM, unit excluded.

*Q* Query (molecule): CC(O)CN1CCN(CCSC(c2ccc(F)cc2)c2ccc(F)cc2)CC1 (configuration not stated) ; field requested: Ki
*A* 0.2

*Q* Quick check: Ki of [O-][S+](CCN1CCN(CC(O)Cc2ccccc2)CC1)C(c1ccc(F)cc1)c1ccc(F)cc1 (configuration not stated) ?
*A* 0.012

----------
Please respond with reported pKi for every item in the list.
assay: Displacement of [3H]nisoxetine from NET in Sprague-Dawley rat frontal cortex membranes incubated for 180 mins by radioligand binding assay; parameters: species or system Membrane
For clarity, pKi is expressed as the negative log10 of concentration in mol/L.

*Q* Consider the compound shown here: `Fc1ccc(C(SCCN2CCN(Cc3ccc(Cl)cc3)CC2)c2ccc(F)cc2)cc1` What is its recorded pKi?
*A* 5.13

*Q* Bench note: what pKi did `Fc1ccc(CN2CCN(CCSC(c3ccc(F)cc3)c3ccc(F)cc3)CC2)cc1` show?
*A* 5.16

*Q* # query: pKi of entry `O=C(CSC(c1ccc(F)cc1)c1ccc(F)cc1)N1CCN(CCCc2ccccc2)CC1`
*A* 4.69

*Q* Entry under review: [O-][S+](CCN1CCN(Cc2ccccc2)CC1)C(c1ccc(F)cc1)c1ccc(F)cc1 (centres undefined) . Reported pKi?
*A* 4.34

*Q* // pKi lookup, key: CC(O)CN1CCN(CCSC(c2cccc(Cl)c2)c2cccc(Cl)c2)CC1 (centres undefined)
*A* 4.50

*Q* Any idea what pKi was measured for O=C(C[S+]([O-])C(c1ccc(F)cc1)c1ccc(F)cc1)N1CCN(CCCc2ccccc2)CC1 (centres undefined) ?
*A* 4.92

----------
Please provide measured Ki for the entries that follow.
Express the result in nM but write the number alone.

*Q* Find the measured Ki: item CC(O)CN1CCN(CC[S+]([O-])C(c2ccc(F)cc2)c2ccc(F)cc2)CC1 (configuration not stated) , target or system D(4) dopamine receptor (Homo sapiens).
*A* 3820

*Q* Query the reported Ki for D(4) dopamine receptor (Homo sapiens); item: CC(O)CN1CCN(CCSC(c2ccc(F)cc2)c2ccc(F)cc2)CC1 (configuration not stated)
*A* 6300

*Q* # value lookup — system D(4) dopamine receptor (Homo sapiens), readout Ki, item CCc1cc(Cl)c(OC)c(C(=O)NC[C@@H]2CCCN2CC)c1O [ETICLOPRIDE]
*A* 70.4

*Q* // lookup Ki | system=D(4) dopamine receptor (Homo sapiens) | key= `Fc1ccc(C(SCCNCCCc2ccccc2)c2ccc(F)cc2)cc1`
*A* 28.1

*Q* // fetch D(4) dopamine receptor (Homo sapiens) Ki for [O-][S+](CCN1CCN(CC(O)Cc2ccccc2)CC1)C(c1ccc(F)cc1)c1ccc(F)cc1 (configuration not stated)
*A* 1750

*Q* Look up Ki with D(4) dopamine receptor (Homo sapiens) for this molecule: CCCCN1C2CCC1CC(OC(c1ccc(F)cc1)c1ccc(F)cc1)C2 (configuration not stated)
Sequence (P21917 whole entry): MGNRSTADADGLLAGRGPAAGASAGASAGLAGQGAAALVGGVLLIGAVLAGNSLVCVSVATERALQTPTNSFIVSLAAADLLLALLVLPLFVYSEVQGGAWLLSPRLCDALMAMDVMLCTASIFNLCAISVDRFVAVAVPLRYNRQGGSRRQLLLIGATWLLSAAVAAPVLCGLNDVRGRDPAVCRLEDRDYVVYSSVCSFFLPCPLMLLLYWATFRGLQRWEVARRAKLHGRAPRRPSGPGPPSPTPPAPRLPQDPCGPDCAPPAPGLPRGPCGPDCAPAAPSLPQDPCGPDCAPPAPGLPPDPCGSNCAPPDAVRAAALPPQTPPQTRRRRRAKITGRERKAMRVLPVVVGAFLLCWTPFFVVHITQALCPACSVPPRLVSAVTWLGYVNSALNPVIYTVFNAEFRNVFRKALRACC
*A* 583

----------
organism: Rattus norvegicus; assay: Selectivity index, ratio of Ki for SERT in Sprague-Dawley rat brain stem membranes to Ki for DAT in Sprague-Dawley rat brain membranes; format: cell membranes
reportedEndpoint: Ratio Ki

*Q* Recorded Ratio Ki of [O-][S+](CCN1CCN(Cc2ccc(F)cc2)CC1)C(c1ccc(F)cc1)c1ccc(F)cc1 (centres undefined) , please.
*A* > 100

*Q* What value of Ratio Ki has been reported for the following compound? CC(O)CN1CCN(CC[S+]([O-])C(c2ccccc2)c2ccccc2)CC1 (centres undefined)
*A* > 100

*Q* Param item = CCCN1CCN(C(=O)C[S+]([O-])C(c2ccc(F)cc2)c2ccc(F)cc2)CC1 (centres undefined) ; retrieve measured Ratio Ki.
*A* > 100

*Q* Item under review: CC(O)CN1CCN(C(=O)C[S+]([O-])C(c2ccc(F)cc2)c2ccc(F)cc2)CC1 (centres undefined) . Reported Ratio Ki?
*A* > 100

*Q* Request the reported Ratio Ki associated with O=C(C[S+]([O-])C(c1ccc(F)cc1)c1ccc(F)cc1)N1CCN(Cc2ccc(F)cc2)CC1 (centres undefined)
*A* > 100

*Q* Which value of Ratio Ki has been reported for CC(O)CN1CCN(C(=O)CSC(c2cccc(Cl)c2)c2cccc(Cl)c2)CC1 (centres undefined) in the records?
*A* > 100

*Q* Query: Ratio Ki; subject: O=C(C[S+]([O-])C(c1ccc(F)cc1)c1ccc(F)cc1)N1CCN(CCCc2ccccc2)CC1 (centres undefined)
*A* > 100

*Q* Could you tell me which Ratio Ki is on file for `O=C(CSC(c1ccc(F)cc1)c1ccc(F)cc1)N1CCN(Cc2ccc(F)cc2)CC1` ?
*A* > 100

*Q* # input compound: `c1ccc(CCCN2CCN(CCSC(c3ccccc3)c3ccccc3)CC2)cc1` ; wanted: its Ratio Ki
*A* > 100

----------
reportedEndpoint: pKi
Schema: pKi number; meaning minus log10 of the concentration expressed in molar units.

*Q* Checklist item: pKi tested on UniProt P31652, entry CC(O)CN1CCN(CCSC(c2cccc(Cl)c2)c2cccc(Cl)c2)CC1 (stereo not given) , value?
*A* 4.97

*Q* Which pKi is reported with UniProt P31652 for this entry: [O-][S+](CCN1CCN(CCCc2ccccc2)CC1)C(c1ccccc1)c1ccccc1 (stereo not given) ?
*A* 5.13

*Q* Return pKi measured with UniProt P31652 given this compound: [O-][S+](CCN1CCN(Cc2ccc(F)cc2)CC1)C(c1ccc(F)cc1)c1ccc(F)cc1 (stereo not given)
Sequence (P31652 whole entry): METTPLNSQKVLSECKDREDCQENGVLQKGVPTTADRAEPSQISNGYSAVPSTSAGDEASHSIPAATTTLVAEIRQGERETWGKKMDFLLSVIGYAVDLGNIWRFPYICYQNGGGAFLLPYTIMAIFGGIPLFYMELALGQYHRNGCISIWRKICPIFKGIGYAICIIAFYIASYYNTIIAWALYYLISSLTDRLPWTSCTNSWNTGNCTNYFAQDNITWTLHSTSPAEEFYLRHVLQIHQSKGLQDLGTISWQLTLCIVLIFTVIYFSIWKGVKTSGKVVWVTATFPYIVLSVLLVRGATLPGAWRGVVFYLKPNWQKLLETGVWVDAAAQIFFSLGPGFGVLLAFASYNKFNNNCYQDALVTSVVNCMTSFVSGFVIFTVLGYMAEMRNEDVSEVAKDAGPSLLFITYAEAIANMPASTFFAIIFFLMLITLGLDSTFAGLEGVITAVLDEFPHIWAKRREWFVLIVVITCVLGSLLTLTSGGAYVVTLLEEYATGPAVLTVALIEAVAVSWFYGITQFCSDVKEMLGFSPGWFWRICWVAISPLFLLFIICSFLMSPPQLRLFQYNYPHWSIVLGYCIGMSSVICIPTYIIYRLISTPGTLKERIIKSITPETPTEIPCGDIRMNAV
*A* 5.07

*Q* Request body: readout pKi, system UniProt P31652, query [O-][S+](CCN1CCN(Cc2ccccc2)CC1)C(c1ccc(F)cc1)c1ccc(F)cc1 (stereo not given) . Return the value.
*A* 4.95

*Q* # get_value(readout= pKi, system= UniProt P31652) for `Fc1ccc(CN2CCN(CCSC(c3ccc(F)cc3)c3ccc(F)cc3)CC2)cc1`
*A* 6.33

*Q* Notebook entry, UniProt P31652 assay: pKi of `Fc1ccc(C(SCCN2CCN(Cc3ccc(C(F)(F)F)cc3)CC2)c2ccc(F)cc2)cc1` = ?
*A* 5.69

*Q* Given the entry `O=C(CSC(c1ccc(F)cc1)c1ccc(F)cc1)N1CCN(CCCc2ccccc2)CC1` , what pKi was observed with UniProt P31652?
*A* 5.50

*Q* So what pKi did O=C(C[S+]([O-])C(c1ccc(F)cc1)c1ccc(F)cc1)N1CCN(CCCc2ccccc2)CC1 (stereo not given) get with UniProt P31652?
*A* 5.88

*Q* Identify the measured pKi of `Fc1ccc(C(SCCN2CCN(Cc3ccccc3)CC2)c2ccc(F)cc2)cc1` for UniProt P31652.
*A* 6.02

*Q* Kindly state the measured pKi obtained for CCCN1CCN(C(=O)C[S+]([O-])C(c2ccc(F)cc2)c2ccc(F)cc2)CC1 (stereo not given) with UniProt P31652.
*A* 4.84

----------
reportedEndpoint: Ki

*Q* Given the entry O=C(C[S+]([O-])C(c1ccc(F)cc1)c1ccc(F)cc1)N1CCN(Cc2ccc(F)cc2)CC1 (configuration not stated) , what Ki was observed with Sodium-dependent dopamine transporter (Rattus norvegicus)?
*A* 0.0743 µM

*Q* What is its Ki for Sodium-dependent dopamine transporter (Rattus norvegicus)? Entry: CC(O)CN1CCN(C(=O)C[S+]([O-])C(c2cccc(Cl)c2)c2cccc(Cl)c2)CC1 (configuration not stated)
*A* 1.38 µM

*Q* Lookup: Ki / Sodium-dependent dopamine transporter (Rattus norvegicus) / O=C(C[S+]([O-])C(c1ccc(F)cc1)c1ccc(F)cc1)N1CCN(Cc2ccc(Cl)cc2)CC1 (configuration not stated)
*A* 0.0563 µM

*Q* Give Sodium-dependent dopamine transporter (Rattus norvegicus) Ki for `Fc1ccc(C(SCCN2CCN(Cc3ccccc3)CC2)c2ccc(F)cc2)cc1`
*A* 0.0074 µM

*Q* Hi! What's the reported Ki for [O-][S+](CCN1CCN(Cc2ccc(F)cc2)CC1)C(c1ccc(F)cc1)c1ccc(F)cc1 (configuration not stated) on Sodium-dependent dopamine transporter (Rattus norvegicus)?
*A* 0.00967 µM

*Q* // map `Fc1ccc(C(SCCN2CCN(Cc3ccc(C(F)(F)F)cc3)CC2)c2ccc(F)cc2)cc1` to recorded Ki (system: Sodium-dependent dopamine transporter (Rattus norvegicus))
Sequence (P23977 whole entry): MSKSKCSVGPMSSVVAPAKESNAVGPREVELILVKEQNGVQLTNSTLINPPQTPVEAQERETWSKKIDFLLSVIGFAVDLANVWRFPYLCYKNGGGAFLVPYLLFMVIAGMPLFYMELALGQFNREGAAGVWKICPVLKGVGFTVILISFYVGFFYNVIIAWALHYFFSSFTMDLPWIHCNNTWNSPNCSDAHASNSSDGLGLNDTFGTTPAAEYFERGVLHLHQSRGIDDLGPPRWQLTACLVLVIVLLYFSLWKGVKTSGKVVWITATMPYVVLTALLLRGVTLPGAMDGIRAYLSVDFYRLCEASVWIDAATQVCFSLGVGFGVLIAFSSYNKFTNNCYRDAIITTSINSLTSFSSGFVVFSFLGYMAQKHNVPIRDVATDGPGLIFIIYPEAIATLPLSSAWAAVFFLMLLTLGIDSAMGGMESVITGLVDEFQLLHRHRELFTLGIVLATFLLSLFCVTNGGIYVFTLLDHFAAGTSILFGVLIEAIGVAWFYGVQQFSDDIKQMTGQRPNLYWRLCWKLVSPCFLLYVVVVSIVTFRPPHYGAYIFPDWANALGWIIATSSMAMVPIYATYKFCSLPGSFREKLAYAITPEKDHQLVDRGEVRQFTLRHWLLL
*A* 0.0266 µM

*Q* Give Sodium-dependent dopamine transporter (Rattus norvegicus) Ki for `Fc1ccc(C(SCCN2CCN(Cc3ccc(Cl)cc3)CC2)c2ccc(F)cc2)cc1`
*A* 0.0193 µM

*Q* Query Ki on Sodium-dependent dopamine transporter (Rattus norvegicus) for CC(O)CN1CCN(C(=O)C[S+]([O-])C(c2ccc(F)cc2)c2ccc(F)cc2)CC1 (configuration not stated)
*A* 0.752 µM

*Q* Query Ki on Sodium-dependent dopamine transporter (Rattus norvegicus) for `CCCN1CCN(C(=O)CSC(c2ccc(F)cc2)c2ccc(F)cc2)CC1`
*A* 0.277 µM

*Q* Reported Ki for Sodium-dependent dopamine transporter (Rattus norvegicus), given CC(O)CN1CCN(C(=O)CSC(c2cccc(Cl)c2)c2cccc(Cl)c2)CC1 (configuration not stated) ?
*A* 0.915 µM

*Q* # value lookup — system Sodium-dependent dopamine transporter (Rattus norvegicus), readout Ki, item CC(O)CN1CCN(C(=O)CSC(c2ccc(F)cc2)c2ccc(F)cc2)CC1 (configuration not stated)
*A* 0.214 µM

*Q* Give recorded Ki with Sodium-dependent dopamine transporter (Rattus norvegicus) for the following compound: O=C(C[S+]([O-])C(c1ccc(F)cc1)c1ccc(F)cc1)N1CCN(CCCc2ccccc2)CC1 (configuration not stated)
*A* 0.0376 µM

Numbers sourced from ChEMBL document CHEMBL3862037.
